Origin of measurements: paper PMC9519869

Reported melting point is given for each of the following compounds.

Look over these answered cases.
Query (compound): O=C(CCNCc1ccccc1)Nc1ccc(-c2nc3cc(Cl)ccc3o2)cc1 [Compound 23] ; field requested: melting point 109 to 111 °C

Query (compound): CN1CCN(CC(=O)Nc2ccc(-c3nc4cc(Cl)ccc4o3)cc2)CC1 [Compound 8] ; field requested: melting point 179 to 181 °C

Query (compound): CCN(CC)CC(=O)Nc1ccc(-c2nc3cc(Cl)ccc3o2)cc1 [Compound 26] ; field requested: melting point 133 to 135 °C

Query (compound): O=C(CCCl)Nc1ccc(-c2nc3cc(Cl)ccc3o2)cc1 [Compound 5] ; field requested: melting point 210 to 212 °C

Query (compound): [N-]=[N+]=Nc1ccc(-c2nc3cc(Cl)ccc3o2)cc1 [Compound 28, 2-(4-azidophenyl)-5-chlorobenzoxazole] ; field requested: melting point 167 to 169 °C

Query (compound): O=C(CNCc1ccccc1)Nc1ccc(-c2nc3cc(Cl)ccc3o2)cc1 [Compound 20] ; field requested: melting point 158 to 160 °C

Query (compound): CCN1CCN(CCC(=O)Nc2ccc(-c3nc4cc(Cl)ccc4o3)cc2)CC1 [Compound 14] ; field requested: melting point 167 to 169 °C

# next compound below
Query (compound): COc1ccccc1N1CCN(CC(=O)Nc2ccc(-c3nc4cc(Cl)ccc4o3)cc2)CC1 [Compound 17] ; field requested: melting point 218 to 220 °C
